Below is a list of entries, each paired with its recorded TGI value.
System: A549 NSCLC
protocol-notes: NCI tumour cell line growth inhibition, 48 h
Enter your answer as a number in µM; do not include the unit.

molecule	property-name	measured-result
COc1ccc(Cc2nc3cc([N+](=O)[O-])ccc3n2C[C@@H]2CCCN3CCCCC23)cc1 (stereo not given in full)	TGI	35
CCNC(=S)NNC(=O)c1csc(NC(=S)NC2CCCCC2)n1	TGI	67.8

Lab note: molecule `CCCCn1c(C)c(C(=O)CC)c(C(=O)NCCN2CCN(c3ccccc3Cl)CC2)c1C` tested on A549 NSCLC; recorded TGI was 32.9

----------
Test system: M14 melanoma
protocol-notes: NCI tumour cell line growth inhibition, 48 h
property-name: GI50

molecule	measured-result
O=C(CNc1c(Cl)cccc1Cl)Nc1ccc(-c2nc3ccccc3s2)cc1	2.05 µM

Entry `O=C(Nc1ccc(Oc2cccc(Cl)c2)c(Cl)c1)c1cnccn1` , GI50 reported as 0.225 µM

Entry `Fc1ccc(-c2nnc3sc(-c4cc(Cl)cc(Cl)c4)nn23)cc1Cl` , GI50 reported as 41.3 µM

Entry `COc1cnc2c(c1)C(=O)c1c-2n(CCCBr)c(=O)c2cc([N+](=O)[O-])ccc12` , GI50 reported as 0.14 µM

----------
Test system: OVCAR-5 ovarian
protocol-notes: NCI tumour cell line growth inhibition, 48 h; in the data active = GI50 below about 0.43 µM; inactive = the rest
*1 amine or outer side, *2 acyl side, *3 side chain or, on linkers, in order; H or OH if unused. Where a SMILES comes first, the peptide text is derived from it. Bridges are numbered along the chain shown (N, C = ends). [ ]: non-standard residue; d: D form. The star is where a group is joined. Phe(3,5-F2) = N[C@@H](Cc1cc(F)cc(F)c1)C(=O)O; Pro(4R-Me) = C[C@H]1CN[C@H](C(=O)O)C1; aThr = C[C@H](O)[C@H](N)C(=O)O; Pip = O=C(O)[C@@H]1CCCCN1; X10 = Fc1cc(C2CC2)ccc1N*; Abu = CC[C@H](N)C(=O)O; CO = O=C([*:1])[*:2]
Just give me one of these, please: active, inactive

Example entries begin here.
compound	group
CC[C@@H]1NC(=O)[C@@H]2CCCCN2C(=O)[C@@H]2CCCN2C(=O)[C@@H](NC(=O)[C@H](Cc2cc(F)cc(F)c2)NC(=O)Nc2ccc(C3CC3)cc2F)[C@H](C)OC(=O)[C@@H]2C[C@@H](C)CN2C1=O ({X10-CO}-[Phe(3,5-F2)][aThr]P[Pip][Abu][Pro(4R-Me)]; ester 2-C)	active
ClC1=C(Cl)C(Cl)=C(Cl)C1=Cc1ccccc1	inactive
CC(=O)OC1Oc2ccc(C)cc2-c2oc(=O)c(-c3cc4ccccc4oc3=O)cc21 (stereo unspecified)	inactive
Cn1cc(C2=C(c3c4n(c5ccccc35)CCN(C(N)=S)C4)C(=O)NC2=O)c2ccccc21	inactive

// param item: `Cc1cccc(NC2=C(Cl)C(=O)N(Cc3ccc(Cl)cc3)C2=O)c1` ; yields the recorded call
inactive

// param item: `COc1cc(NC(=O)c2ccc(C(F)(F)F)nc2Nc2cc(Cl)ccc2C)cc(OC)c1OC` ; yields the recorded call
inactive

----------
Test system: NCI-H460 lung
protocol-notes: NCI tumour cell line growth inhibition, 48 h
property-name: TGI

Worked examples follow.
molecule	target-system	property-name	measured-result
CCOC(=O)N1C(=O)C2C3C=CC(C2C1=O)C1C2C(=O)N(C(=O)OCC)C(=O)C2C31 (stereo unspecified)	NCI-H460 lung	TGI	> 64.4 µM
Cn1cc(C2=C(c3c4n(c5ccccc35)CCN(C(N)=S)C4)C(=O)NC2=O)c2ccccc21	NCI-H460 lung	TGI	> 22.8 µM
C=CCN1C2Cc3cc(OC)c(OC)cc3C1Cc1cc(OC)c(OC)cc12	NCI-H460 lung	TGI	> 100 µM
O=C(O)CC1OCC=C2C[N+]3([O-])CCC45c6ccccc6NC4C1C2CC53 (stereo unspecified)	NCI-H460 lung	TGI	> 100 µM
CN1C(=O)N(C)C(N2CCCC2)c2c1nc1ccccn1c2=O (stereo unspecified)	NCI-H460 lung	TGI	> 100 µM
N#Cc1ccc(Sc2ccccc2)cc1C#N	NCI-H460 lung	TGI	46.6 µM
CC(C)(C)OC(=O)NCCCCCCC(=O)Cc1ccccc1	NCI-H460 lung	TGI	> 100 µM
COc1cc2c(cc1OC)[Se]c1cc(OC)c(OC)cc1[Se]2	NCI-H460 lung	TGI	> 100 µM

Lab note: molecule `COC(=O)[C@]12CC[C@H]3CN(C(=O)OCc4ccccc4)[C@H]([C@H]31)[C@H](C(=O)OCC[Si](C)(C)C)N2S(=O)(=O)c1ccc(C)cc1` tested on NCI-H460 lung; recorded TGI was > 100 µM

Lab note: molecule `c1cc2sc1CSCCSCCSC2` tested on NCI-H460 lung; recorded TGI was > 100 µM

Lab note: molecule `N#C/C(=C\c1c(Cl)cccc1Cl)c1ccccc1` tested on NCI-H460 lung; recorded TGI was > 58.5 µM

Cited source for all entries: PubChem BioAssay (NCI)
